Measured Biodistribution: Thyroid values are reported for all entries that follow.
Test system: NRG-mice bearing LNCaP tumors
EXPERIMENT DESCRIPTION: Biodistribution (and PET/SPECT imaging) in NRG-mice bearing LNCaP tumors
Type: in vivo
MEASUREMENT PARAMETERS: 24 h p.i., Avg
*1 amine or outer side, *2 acyl side, *3 side chain or, on linkers, in order; H or OH if unused. Where a SMILES comes first, the peptide text is derived from it. [ ]: non-standard residue; d: D form. The star is where a group is joined. ξ: configuration not given here. ξLys(Nα-CO-ξAad) = O=C(O)CCCC(NC(=O)NC(CCCCN*)C(=O)O)C(=O)O; Butanoyl(4-(4-NO2Ph)) = O=C(CCCc1ccc([N+](=O)[O-])cc1)*; DOTA = O=C(O)CN1CCN(CC(=O)O)CCN(CC(=O)*)CCN(CC(=O)O)CC1; Butanoyl(4-(4-MeO-phenyl)) = COc1ccc(CCCC(=O)*)cc1; ξAla(9-anthryl) = NC(Cc1c2ccccc2cc2ccccc12)C(=O)O; X2 = O=C(NC(CCCCN*)C(=O)O)NC(CC(F)C(=O)O)C(=O)O; X1 = O=C(C1CCC(CN[*:1])CC1)[*:2]; ξK = NCCCCC(N)C(=O)O
Record the value in % ID/g, omitting the unit from your answer.

Some entries whose results are on file:
MOLECULE	ASSAY METRIC	ENDPOINT VALUE
COc1ccc(CCCC(=O)NCC(=O)NC(CCCCNC(=O)CN2CCN(CC(=O)[O-])CCN(CC(=O)[O-])CCN(CC(=O)[O-])CC2)C(=O)NCC(=O)NCC2CCC(C(=O)NC(Cc3c4ccccc4cc4ccccc34)C(=O)NCCCCC(NC(=O)NC(CC(F)C(=O)O)C(=O)O)C(=O)O)CC2)cc1.[177Lu+3] (stereo not shown) [^177Lu-CCZ02008] ({Butanoyl(4-(4-MeO-phenyl))}-G[ξK](DOTA)G[X1][ξAla(9-anthryl)]-X2)	Biodistribution: Thyroid	1.54
O=C([O-])CN1CCN(CC(=O)[O-])CCN(CC(=O)NCCCCC(NC(=O)CNC(=O)CCCc2ccc([N+](=O)[O-])cc2)C(=O)NCC(=O)NCC2CCC(C(=O)NC(Cc3c4ccccc4cc4ccccc34)C(=O)NCCCCC(NC(=O)NC(CCCC(=O)O)C(=O)O)C(=O)O)CC2)CCN(CC(=O)[O-])CC1.[177Lu+3] (stereo not shown) [^177Lu-CCZ02017] ({Butanoyl(4-(4-NO2Ph))}-G[ξK](DOTA)G[X1][ξAla(9-anthryl)]-{ξLys(Nα-CO-ξAad)})	Biodistribution: Thyroid	0.40
O=C([O-])CN1CCN(CC(=O)[O-])CCN(CC(=O)NCCCCC(NC(=O)CNC(=O)CCCc2ccc([N+](=O)[O-])cc2)C(=O)NCC(=O)NCC2CCC(C(=O)NC(Cc3c4ccccc4cc4ccccc34)C(=O)NCCCCC(NC(=O)NC(CCCC(=O)O)C(=O)O)C(=O)O)CC2)CCN(CC(=O)[O-])CC1.[225Ac+3] (stereo not shown) [^225Ac-CCZ02017] ({Butanoyl(4-(4-NO2Ph))}-G[ξK](DOTA)G[X1][ξAla(9-anthryl)]-{ξLys(Nα-CO-ξAad)})	Biodistribution: Thyroid	0.33

Sample COc1ccc(CCCC(=O)NCC(=O)NC(CCCCNC(=O)CN2CCN(CC(=O)[O-])CCN(CC(=O)[O-])CCN(CC(=O)[O-])CC2)CC(=O)NCC2CCC(C(=O)NC(Cc3c4ccccc4cc4ccccc34)C(=O)NCCCCC(NC(=O)NC(CC(F)C(=O)O)C(=O)O)C(=O)O)CC2)cc1.[177Lu+3] (stereo not shown) [^177Lu-CCZ02019] ; Biodistribution: Thyroid observed: 0.52
